# System: patients with AKI
# Design: species or system human
# Test Settings: in vivo
Measure: Coefficient
Respond with the number and no other words.

O=S(=O)([O-])[O-].[Mg+2] [Magnesium Sulfate]: −0.054
COc1ccnc(C[S+]([O-])c2nc3ccc(OC(F)F)cc3[nH]2)c1OC (stereo not drawn): −0.025
C[C@@H](O)[C@H]1C(=O)N2C(C(=O)O)=C(S[C@@H]3CN[C@H](C(=O)N(C)C)C3)[C@H](C)[C@H]12: 0.076
CN1CC[C@]23c4c5ccc(O)c4O[C@H]2[C@@H](O)C=C[C@H]3[C@H]1C5: 0.198
CC(=O)Oc1ccc(C(c2ccc(OC(C)=O)cc2)c2ccccn2)cc1: −0.021

Can you share its Coefficient? I mean this compound: NC[C@H](O)c1ccc(O)c(O)c1 [Norepinephrine]
0.167

Can you share its Coefficient? I mean this compound: `CCCCc1oc2ccccc2c1C(=O)c1cc(I)c(OCCN(CC)CC)c(I)c1`
0.090

Can you share its Coefficient? I mean this compound: `C[C@H](CS)C(=O)N1CCC[C@H]1C(=O)O`
−0.044

Can you share its Coefficient? I mean this compound: O=C1Nc2ccc(Cl)cc2C(c2ccccc2Cl)=NC1O (stereo not drawn)
0.031
